- Test system: Pseudomonas aeruginosa
- MEASUREMENT_DESCRIPTION: Antibacterial activity against Pseudomonas aeruginosa ATCC 27853 at 30 ug/ml after 24 hr by paper disk diffusion method
- Format: functional
- TEST_PARAMETERS: ATCC 27853, 24 h, read-out: DIZ
Reported zone of inhibition at 30 µg/mL by item:

[
  {
    "STRUCTURE_SMILES": "NCC[C@H](O)C(=O)N[C@@H]1C[C@H](N)[C@@H](O[C@H]2O[C@H](CN)[C@@H](O)[C@H](O)[C@H]2O)[C@H](O)[C@H]1O[C@H]1O[C@H](CO)[C@@H](O)[C@H](N)[C@H]1O",
    "ASSAY_SYSTEM": "Pseudomonas aeruginosa",
    "zone of inhibition at 30 µg/mL": "22.1 mm"
  },
  {
    "STRUCTURE_SMILES": "CCCCN(CCCC)CC(=O)Nn1c(S)nnc1-c1ccc(C)cc1",
    "ASSAY_SYSTEM": "Pseudomonas aeruginosa",
    "zone of inhibition at 30 µg/mL": "12.3 mm"
  },
  {
    "STRUCTURE_SMILES": "CCN(CC)CC(=O)Nn1c(S)nnc1-c1ccc(C)cc1",
    "ASSAY_SYSTEM": "Pseudomonas aeruginosa",
    "zone of inhibition at 30 µg/mL": "7.3 mm"
  },
  {
    "STRUCTURE_SMILES": "CCCN(CCC)CC(=O)Nn1c(S)nnc1-c1ccc(C)cc1",
    "ASSAY_SYSTEM": "Pseudomonas aeruginosa",
    "zone of inhibition at 30 µg/mL": "9.56 mm"
  }
]

## Input Find the recorded zone of inhibition at 30 µg/mL belonging to COc1ccc(-c2nnc(S)n2NC(=O)CN(C(C)C)C(C)C)cc1 and report it.
## Output 11.1 mm

## Input One more molecule: CCCCCN(CCCCC)CC(=O)Nn1c(S)nnc1-c1ccc(C)cc1
## Output 7.13 mm

## Input One more molecule: CCCCN(C)CC(=O)Nn1c(S)nnc1-c1ccc(OC)cc1
## Output 9.2 mm

## Input One more molecule: CCCCN(C)CC(=O)Nn1c(S)nnc1-c1ccc(C)cc1
## Output 8.2 mm

## Input One more molecule: CCCCCN(CCCCC)CC(=O)Nn1c(S)nnc1-c1ccc(OC)cc1
## Output 6.23 mm

## Input One more molecule: CCCCN(CCCC)CC(=O)Nn1c(S)nnc1-c1ccc(OC)cc1
## Output 15.1 mm

## Input One more molecule: Cc1ccc(-c2nnc(S)n2NC(=O)CN(C(C)C)C(C)C)cc1
## Output 8.3 mm

## Input One more molecule: CCN(CC)CC(=O)Nn1c(S)nnc1-c1ccc(OC)cc1
## Output 8.26 mm

## Input One more molecule: CCCN(CCC)CC(=O)Nn1c(S)nnc1-c1ccc(OC)cc1
## Output 12.2 mm

====

- Test system: Escherichia coli
- MEASUREMENT_DESCRIPTION: Antibacterial activity against Escherichia coli ATCC 8793 at 30 ug/ml after 24 hr by paper disk diffusion method
- Assay type: functional
- TEST_PARAMETERS: ATCC 8793, 24 h, read-out: DIZ
VALUE_TYPE: zone of inhibition at 30 µg/mL (mm)
Entry rule: numbers only, all in mm.

[
  {
    "STRUCTURE_SMILES": "CCCCN(C)CC(=O)Nn1c(S)nnc1-c1ccc(OC)cc1",
    "zone of inhibition at 30 µg/mL / mm": 7.2
  },
  {
    "STRUCTURE_SMILES": "CCCN(CCC)CC(=O)Nn1c(S)nnc1-c1ccc(C)cc1",
    "zone of inhibition at 30 µg/mL / mm": 9.33
  },
  {
    "STRUCTURE_SMILES": "CCCCN(C)CC(=O)Nn1c(S)nnc1-c1ccc(C)cc1",
    "zone of inhibition at 30 µg/mL / mm": 7.26
  },
  {
    "STRUCTURE_SMILES": "CCCCN(CCCC)CC(=O)Nn1c(S)nnc1-c1ccc(OC)cc1",
    "zone of inhibition at 30 µg/mL / mm": 13
  }
]

## Input Find the recorded zone of inhibition at 30 µg/mL belonging to CCN(CC)CC(=O)Nn1c(S)nnc1-c1ccc(OC)cc1 and report it.
## Output 9.2

## Input One more molecule: CCCCCN(CCCCC)CC(=O)Nn1c(S)nnc1-c1ccc(OC)cc1
## Output 8.97

## Input One more molecule: CCN(CC)CC(=O)Nn1c(S)nnc1-c1ccc(C)cc1
## Output 7.3

## Input One more molecule: CCCCN(CCCC)CC(=O)Nn1c(S)nnc1-c1ccc(C)cc1
## Output 11.2

## Input One more molecule: Cc1ccc(-c2nnc(S)n2NC(=O)CN(C(C)C)C(C)C)cc1
## Output 8.2
